Hello, the source for this data is paper PMC3783171, in case you need it.

- SYSTEM: T1, Sso7d (Sulfolobus solfataricus, UniProt P39476 1-64)
- T1 sequence: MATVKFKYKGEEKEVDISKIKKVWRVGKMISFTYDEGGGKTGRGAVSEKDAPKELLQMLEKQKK
- PROTOCOL SUMMARY: EMSA; apparent Kd; 4 mM Mg2+, 25 C; EMSA: 50 mM Tris-HCl pH 8.0, 2 mM beta-mercaptoethanol, 0.1 mg/ml BSA, 4 mM MgCl2, 5% glycerol, 2 nM probe, 10 min at 25 C (room temperature), 5% PAGE in 0.1x TBE; Tm: 10 mM potassium phosphate pH 7.0, 20-90 C
- CONDITION PARAMETERS: protein: recombinant; label: 32P on D30; blunt
ASSAY ENDPOINT: pKd
Answers are plain numbers, as −log10 of the molar value.

### Prompt Look up and state reported pKd for 30-bp dsDNA (D30/Com30) (dsDNA) DNA 1: TGCTTCCTTCAATGTGCTGGGATCCTACAA DNA 2: TTGTAGGATCCCAGCACATTGAAGGAAGCA
### Response 6.82
